Origin of measurements: PubChem BioAssay (NCI)

# Test system: SK-MEL-28 melanoma
# assayInfo: NCI tumour cell line growth inhibition, 48 h
Hi there, I'd appreciate the recorded TGI for every entry that follows.

Below, each entry is followed by its recorded TGI result.
> print(dat)
                                   molecule  valuereported
1  Cc1ncc([N+](=O)[O-])n1CCNC(=O)Cn1c([N+](=O)[O-])cnc1C       > 100 µM
2  CC(C)CCN[C@@H]1CCc2cc(O)c(N3CC(=O)NS3(=O)=O)c(F)c2C1       > 100 µM
3              COc1cc2oc(=O)ccc2cc1CC=C(C)C       > 100 µM
4  COc1ccc(NC2CC(C)N(C(=O)c3ccccc3)O2)cc1 (stereo unspecified)        > 10 µM
5  CCC(Oc1ccc(OC)c2ccccc(=O)c12)C(=O)O (stereo unspecified)       > 100 µM

// for each molecule in input: emit TGI
1. O=C1c2nc3n(c2C(=O)c2c1nc1n2CCC1)CCC3
2. c1ccc(CC2(c3cc4ccccc4[nH]3)OCCO2)nc1
3. COc1ccc(CCNC(=O)[C@H]2CCCC[C@@H]2CCO)cc1OC
4. C[C@H]1C(=O)CC[C@]2(C)CCC(C(C)(C)O)CC12O (stereo partly specified)

A:
1: 31.3 µM; 2: > 100 µM; 3: > 100 µM; 4: > 100 µM

// for each molecule in input: emit TGI
1. CCOP(=O)(OCC)/C(C#N)=C/c1c[nH]c2ccccc12
2. COc1cc(Cl)cc(-c2nn(-c3cccc(NC(=O)Nc4ccc(Cl)c(C(F)(F)F)c4)c3)cc2-c2ccncc2)c1

A:
1. > 100 µM
2. 8.41 µM
